# System tested: T1, 4H492-bN
# T1 chain: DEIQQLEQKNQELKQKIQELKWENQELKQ
# Test details: two-hybrid library CCNG1;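 also: natural log of median RNA to DNA barcode read ratio; higher means stronger binding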
Below, each of the binders is paired with its reported interaction score value.
Assay metric: interaction score

[
  {
    "Binder": "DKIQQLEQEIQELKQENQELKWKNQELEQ [4H2143-bN]",
    "Recorded result": -0.438
  },
  {
    "Binder": "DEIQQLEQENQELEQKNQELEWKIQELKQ [4H182-bN]",
    "Recorded result": 0.471
  },
  {
    "Binder": "DKIQQLKQKIQELEQENQELEWKNQELEQ [4H2839-bN]",
    "Recorded result": -0.542
  },
  {
    "Binder": "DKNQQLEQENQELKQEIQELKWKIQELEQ [4H3277-bN]",
    "Recorded result": -1.45
  }
]

Ref: paper PMC10397247
